System: Salmonella TA98
Assay: Salmonella plate-incorporation mutagenicity assay, strain TA98, with S9 mix
Assay type: cell-based
Settings: TA98 +S9, Test 1, 20 µg/plate; zero-dose 33/40/39
Records here are stratified by Rev/plate; strata: low end (below 60 rev/plate), middle (60 rev/plate to below 200 rev/plate), high end (200 rev/plate or more)

Here's what some known entries look like.
O[C@@H]1c2ccccc2-c2c(ccc3sccc23)[C@H]1O (racemic) [P[3,4-b]T 6,7-diol] = middle
O[C@@H]1C=Cc2c(ccc3ccc4ccsc4c23)[C@H]1O (racemic) [P[4,3-b]T 8,9-diol] = high end
O=S1(=O)C=Cc2c1ccc1ccc3ccccc3c21 [P[3,4-b]T sulfone, Phenanthro[3,4-b]thiophene sulfone] = high end

Okay, next one:
Task item: Which class is correct for the following molecule? O[C@@H]1C=Cc2c(ccc3ccc4sccc4c23)[C@H]1O (racemic) [P[3,4-b]T 8,9-diol]
Reply: middle
